test system: microorganisms; assay: Peptide activities: targeting/binding, antimicrobial, growth or phenotype altering (Tables 7, 8); type: cell-based; conditions: peptides having multiple activities
measuredEndpoint: Activities

PF-294: peptide having multiple activities (chain 1 DFLVNFLWFKGELNWGKKRYK; chain 2 DFLVNFLWFKGELNWGKKRYK; Peptide with targeting and/or antimicrobial activity)	G B
PF-344: peptide having multiple activities (DERLPEAKAIRNFNGSVMVLGR; Peptide with targeting and/or antimicrobial activity)	G B
PF-553: peptide having multiple activities (LTIVGNALQQKNQKLLLNQKKITSLG; Peptide with targeting and/or antimicrobial activity)	G B

----------
Test system: microorganisms
Assay: Morphology, biofilm and growth disrupting peptides (Table 5)
Format: cell-based
Parameters: key: A: Peptide aggregates; B: Less hyphal formation; Clumps; Diffuse clumps and small polyps; F: Diffuse growth; H: Thin; I: Growth inhibition; Microcolony formation; Rippled; Small polyps; Thick; W: Halo formation on top, microlonies on bottom
Conditions: E. coli
Excerpt: In certain embodiments peptides that induce alterations in phenotype or other biological activities can also be used as antimicrobial effector moieties.
measuredEndpoint: Organism, effect: E. coli

Reference set, count: 5
MIHLTKQNTMEALHFIKQFYDMFFILNFNV [PF-040]	E. coli (C)
PF-360: peptide having multiple activities (chain 1 MEQKVKVIFVPRSKPDNQLKTFVSAVLFKA; chain 2 MEQKVKVIFVPRSKPDNQLKTFVSAVLFKA; Peptide with targeting and/or antimicrobial activity)	E. coli (C)
PF-403: peptide having multiple activities (chain 1 LLSTEQLLKYYDGETFDGFQLPSNE; chain 2 LLSTEQLLKYYDGETFDGFQLPSNE; Peptide with targeting and/or antimicrobial activity)	E. coli (R)
PF-344: peptide having multiple activities (DERLPEAKAIRNFNGSVMVLGR; Peptide with targeting and/or antimicrobial activity)	E. coli (A)
PF-383: peptide having multiple activities (chain 1 WSEIEINTKQSN; chain 2 WSEIEINTKQSN; Peptide with targeting and/or antimicrobial activity)	E. coli (R)

For PF-395: peptide having multiple activities (chain 1 YCVPLGNMGNMNNKIW; chain 2 YCVPLGNMGNMNNKIW; Peptide with targeting and/or antimicrobial activity) , what is its reported Organism, effect: E. coli? E. coli (R)

For ALCSVIKAIELGIINVHLQ [PF-366] , what is its reported Organism, effect: E. coli? E. coli (C)

For PF-381: peptide having multiple activities (chain 1 QGANPCQQVGFTVNDPDCRLAKTV; chain 2 QGANPCQQVGFTVNDPDCRLAKTV; Peptide with targeting and/or antimicrobial activity) , what is its reported Organism, effect: E. coli? E. coli (R)

For MGIIAGIIKVIKSLIEQFTGK [PF-007] , what is its reported Organism, effect: E. coli? E. coli (A)

For PF-350: peptide having multiple activities (LAVILRAIVY; Peptide with targeting and/or antimicrobial activity) , what is its reported Organism, effect: E. coli? E. coli (C)

For PF-385: peptide having multiple activities (chain 1 MIKKSILKIKYYVPVLISLTLILSA; chain 2 MIKKSILKIKYYVPVLISLTLILSA; Peptide with targeting and/or antimicrobial activity) , what is its reported Organism, effect: E. coli? E. coli (A)

For PF-390: peptide having multiple activities (chain 1 VVAYVITQVGAIRF; chain 2 VVAYVITQVGAIRF; Peptide with targeting and/or antimicrobial activity) , what is its reported Organism, effect: E. coli? E. coli (C)

For PF-399: peptide having multiple activities (chain 1 FPIISALLGAIICIAIYSFIVNRKA; chain 2 FPIISALLGAIICIAIYSFIVNRKA; Peptide with targeting and/or antimicrobial activity) , what is its reported Organism, effect: E. coli? E. coli (C)

----------
system: microorganisms; assay: Targeting peptide binding to target microorganisms (Tables 3, 10, 12); conditions: peptide binding in aqueous buffers that varied with peptide solubility; preferably 1x PBS
measuredEndpoint: Target(s) (microorganism bound by the targeting peptide)

Reference set, count: 4
1T-28 (VSRDEAMEFIDREWTTLQPAGKSHA; Peptide with targeting and/or antimicrobial activity)	P. aeruginosa
1T-82 (FGVGVGIALFMAGYAIGKDLRKKFGKSC; Peptide with targeting and/or antimicrobial activity)	S. pneumoniae
1T-81 (AIATGLDIVDGKFDGYLWA; Peptide with targeting and/or antimicrobial activity)	S. pneumoniae
1T-57 (RLEYRRLETQVEENPESGRRPMRG; Peptide with targeting and/or antimicrobial activity)	P. aeruginosa

Please provide the recorded Target(s) (microorganism bound by the targeting peptide) for 1T-73 (GWWEELLHETILSKFKITKALELPIQL; Peptide with targeting and/or antimicrobial activity) , tested on microorganisms. S. pneumoniae

Please provide the recorded Target(s) (microorganism bound by the targeting peptide) for 1T-74 (DIDWGRKISCAAGVAYGAIDGCATTV; Peptide with targeting and/or antimicrobial activity) , tested on microorganisms. S. pneumoniae

----------
test system: microorganisms; test: Peptide activities: targeting/binding, antimicrobial, growth or phenotype altering (Tables 7, 8); type: cell-based; details: peptides having multiple activities
measuredEndpoint: Activities

PF-476: peptide having multiple activities (WADAQYKLCENCSE; Peptide with targeting and/or antimicrobial activity)	G B
PF-429: peptide having multiple activities (chain 1 AATLICVGSGIMSSL; chain 2 AATLICVGSGIMSSL; Peptide with targeting and/or antimicrobial activity)	G B
PF-164: peptide having multiple activities (EEVSRALAGIGLGLGCRIG; Peptide with targeting and/or antimicrobial activity)	G B

----------
tested on: microorganisms; experiment: Targeting peptide binding to target microorganisms (Tables 3, 10, 12); details: microorganism(s) the targeting peptide binds; binding in aqueous buffers varied with peptide solubility, preferably 1x PBS
measuredEndpoint: Target(s)

PF-702 (LSGRLAGRR; Peptide with targeting and/or antimicrobial activity)	Mycobacteria spp
PF-662 (chain 1 GKQSRAHGPVASRREFRRKSG; chain 2 GKQSRAHGPVASRREFRRKSG; Peptide with targeting and/or antimicrobial activity)	Mycobacteria spp

----------
system: microorganisms; test: Peptide activities: targeting/binding, antimicrobial, growth or phenotype altering (Tables 7, 8); assay type: cell-based; conditions: peptides having multiple activities
measuredEndpoint: Activities

PF-C055: peptide having multiple activities (YNLSIYIYFLHTITIAGLITLPFII; Peptide with targeting and/or antimicrobial activity)	G B
PF-C143: peptide having multiple activities (chain 1 VVFGGGDRLV; chain 2 VVFGGGDRLV; Peptide with targeting and/or antimicrobial activity)	G B
PF-306: peptide having multiple activities (GCILPHKKDNYNYIMSKFQDLVKITSKK; Peptide with targeting and/or antimicrobial activity)	G B

----------
test system: microorganisms; assay: Peptide activities: targeting/binding, antimicrobial, growth or phenotype altering (Tables 7, 8); assay type: cell-based; conditions: peptides having multiple activities
measuredEndpoint: Activities

ASKQASKQASKQASKQASKQASRSLKNHLL [PF-523]	B M
PF-423: peptide having multiple activities (chain 1 AGKKERLLSFREQFLNKNKKK; chain 2 AGKKERLLSFREQFLNKNKKK; Peptide with targeting and/or antimicrobial activity)	G B
PF-178: peptide having multiple activities (EVYSSPTNNVAITVQNN; Peptide with targeting and/or antimicrobial activity)	G B

----------
test system: microorganisms; test: Targeting peptide binding to target microorganisms (Tables 3, 10, 12); settings: microorganism(s) the targeting peptide binds; binding in aqueous buffers varied with peptide solubility, preferably 1x PBS
measuredEndpoint: Target(s)

VWENRKKYLENEIERHNVFLKLGQEVIKGLNALASRGR [PF-257]	S. epidermidis
PF-652 (chain 1 FLAPARPDLQAQRQALAQ; chain 2 FLAPARPDLQAQRQALAQ; Peptide with targeting and/or antimicrobial activity)	Mycobacteria spp
PF-247 (ETAASETH; Peptide with targeting and/or antimicrobial activity)	S. epidermidis
PF-695 (ALSVMLGNIPLVVPNANQL; Peptide with targeting and/or antimicrobial activity)	Mycobacteria spp

----------
test system: microorganisms; test: Morphology, biofilm and growth disrupting peptides (Table 5); format: cell-based; design: key: A: Peptide aggregates; B: Less hyphal formation; Clumps; Diffuse clumps and small polyps; F: Diffuse growth; H: Thin; I: Growth inhibition; Microcolony formation; Rippled; Small polyps; Thick; W: Halo formation on top, microlonies on bottom; details: S. pneumoniae
Ends that are not written are not given here.
measuredEndpoint: Organism, effect

Reference set, count: 6
PF-667 (chain 1 PAHQRLRIDQRLVADRDMVQDYES; chain 2 PAHQRLRIDQRLVADRDMVQDYES; Peptide with targeting and/or antimicrobial activity)	S. pneumoniae (R)
PF-541 (RRNLNSPNIKTRKRALKIIKQHQRSK; Peptide with targeting and/or antimicrobial activity)	S. pneumoniae (H)
PF-539: peptide having multiple activities (SIILTKKKRRKIPLSIDSQIYKYTFKQ; Peptide with targeting and/or antimicrobial activity)	S. pneumoniae (A)
PF-428: peptide having multiple activities (chain 1 ENEESIF; chain 2 ENEESIF; Peptide with targeting and/or antimicrobial activity)	S. pneumoniae (H)
PF-526: peptide having multiple activities (VLLLFIFQPFQKQLL-NH2)	S. pneumoniae (R)
PF-518: peptide having multiple activities (SFYSKYSRYIDNLAGAIFLFF; Peptide with targeting and/or antimicrobial activity)	S. pneumoniae (M)

For PF-474: peptide having multiple activities (MHRNLVLVKMEPIPHIMIIANQIGIIIEKA; Peptide with targeting and/or antimicrobial activity) , what is its reported Organism, effect? S. pneumoniae (D)

For PF-576: peptide having multiple activities (AYSGELPEPLVRKMSKEQVRSVMGK; Peptide with targeting and/or antimicrobial activity) , what is its reported Organism, effect? S. pneumoniae (C)

For PF-573: peptide having multiple activities (EKKLIVKLIDSIGKSHEEIVGAG; Peptide with targeting and/or antimicrobial activity) , what is its reported Organism, effect? S. pneumoniae (C)

For PF-447: peptide having multiple activities (IDKSRNKDQFSHIFGLYNICSG; Peptide with targeting and/or antimicrobial activity) , what is its reported Organism, effect? S. pneumoniae (C)

For PF-741: peptide having multiple activities (AKREDTVAAQIGANILNLIQ; Peptide with targeting and/or antimicrobial activity) , what is its reported Organism, effect? S. pneumoniae (D)

For MQIFYIKTKIFLSFFLFLLIFSQCFYKIEE [PF-442] , what is its reported Organism, effect? S. pneumoniae (C)

For PF-686: peptide having multiple activities (LAVLMGYIGYRGWSGKRHINRQ; Peptide with targeting and/or antimicrobial activity) , what is its reported Organism, effect? S. pneumoniae (A)
